Molecular target: Melatonin receptor type 1A (Homo sapiens)
Sequence (P48039 whole entry): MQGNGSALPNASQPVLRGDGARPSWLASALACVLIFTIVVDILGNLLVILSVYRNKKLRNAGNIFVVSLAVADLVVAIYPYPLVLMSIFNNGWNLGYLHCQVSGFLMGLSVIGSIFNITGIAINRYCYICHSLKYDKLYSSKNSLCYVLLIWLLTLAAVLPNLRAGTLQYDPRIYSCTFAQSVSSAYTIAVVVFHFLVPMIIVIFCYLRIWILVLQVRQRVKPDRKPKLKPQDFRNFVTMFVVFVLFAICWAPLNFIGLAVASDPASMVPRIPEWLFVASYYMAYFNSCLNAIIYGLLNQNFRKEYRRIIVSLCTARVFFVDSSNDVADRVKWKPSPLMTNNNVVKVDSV
Experiment: Displacement of 2-[125I]iodomelatonin from human recombinant MT1 expressed in CHO cell membranes incubated for 60 mins by liquid scintillation spectrometry

line notation | Ki
COc1ccc2oc(=O)cc(CCNC(C)=O)c2c1 | 13 nM

Source: ChEMBL document CHEMBL3627610
